Assay: S. pombe growth modifiers, basal conditions – strain 972, OD600, 24 h, no modulator, primary screen (AID 1090);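 note: basal condition with compound alone and no growth modifier present; test concentration not given here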
Conditions: S. pombe 972 growth, higher = more signal, called active from +8 up or from −8 down
Overview of recorded z-score for various molecules

# molecule, z-score
records = [
    ("CC1C=C(CCCO)C=C(C(=O)OCCS(C)(=O)=O)C(C(=O)OCCS(C)(=O)=O)=CN1Cc1cccc(OC(F)(F)F)c1 (configuration not stated)", -2.49),
    ("[N-]=[N+]=Nc1ccccc1C[C@]1(C(=O)NCCN2CCOCC2)N=C(c2ccc(OCCCO)cc2)O[C@H]1c1ccccc1N=[N+]=[N-]", -4.92),
    ("CC(C)(C)OC(=O)CC[C@@]1(C(=O)N2CCCCC2)N=C(c2ccc(OCCCO)cc2)O[C@@H]1c1ccccc1N=[N+]=[N-]", -0.029),
    ("O=[N+]([O-])c1ccc(C[n+]2ccc(-c3ccc(CO)cc3)cc2)o1", -15.5),
    ("NC(=O)NCC#Cc1ccc2c(c1)[C@]1(C(=O)N2)[C@H](c2ccc(O)cc2)N2[C@H](c3ccccc3)[C@H](c3ccccc3)OC(=O)[C@H]2[C@@H]1C(=O)NC[C@H](O)c1ccccc1", 0.207),
    ("C#CCOC(=O)N[C@H](C=CCCCC)c1ccccc1", -0.091),
    ("CC(=O)NCCCC[C@@H]1NC(=O)[C@H]2C[C@@H](C(=O)NCCCCCN)[C@@H](c3cccc(OCCO)c3)N2C1=O", -0.0234),
]

Entry source: PubChem BioAssay
